Assay: Tmax in overnight fasted iv dosed Sprague-Dawley rat plasma measured at 0.083 to 24 hrs post dose by LC-MS/MS method
Assay type: ADME, organism-based
Details: time 0.083-24 hrs
PARAMETER MEASURED: Tmax
Note: state the figure and append the unit.

(Q) Tmax for O=C(NNc1c(Br)cccc1Br)c1ccc(N2CCOCC2)cc1 ?
(A) 4.8 min

---

Experiment: AUC(0 to t) in overnight fasted iv dosed Sprague-Dawley rat measured at 0.083 to 24 hrs post dose by LC-MS/MS method
Type: ADME, organism-based
Design: time upper 24 hrs, time lower 0.083 hrs, route iv
Settings: in vivo
PARAMETER MEASURED: AUC(0-t) (ng·h/mL)
Only the number, expressed in ng·h/mL, is required.

(Q) Using the record for O=C(NNc1c(Br)cccc1Br)c1ccc(N2CCOCC2)cc1 , report its AUC(0-t).
(A) 1480

---

Test: AUC(0 to t) in overnight fasted po dosed Sprague-Dawley rat measured at 0.25 to 24 hrs post dose by LC-MS/MS method
Type: ADME, organism-based
Set-up: time 0.25-24 hrs, route po
Conditions: in vivo
PARAMETER MEASURED: AUC(0-t) (ng·h/mL)
Could you give me the number in ng·h/mL? Just the number is fine.

(Q) AUC(0-t) lookup needed for O=C(NNc1c(Br)cccc1Br)c1ccc(N2CCOCC2)cc1 , thanks.
(A) 1590

---

Assay: Elimination half life in overnight fasted po dosed Sprague-Dawley rat measured at 0.25 to 24 hrs post dose by LC-MS/MS method
Type: ADME, organism-based
Conditions: in vivo, time 0.25-24 hrs, read-out: beta t1/2 (converted)
PARAMETER MEASURED: half-life (h)
Give your result in h as a bare value.

(Q) Which half-life value is on record for O=C(NNc1c(Br)cccc1Br)c1ccc(N2CCOCC2)cc1 ?
(A) 1.81

---

Assay: Cmax in overnight fasted iv dosed Sprague-Dawley rat plasma measured at 0.083 to 24 hrs post dose by LC-MS/MS method
Format: ADME, organism-based
Set-up: time upper 24 hrs, time lower 0.083 hrs, route iv
PARAMETER MEASURED: Cmax (ng/mL)
Form entry: value (ng/mL) — number only.

(Q) Return reported Cmax; argument: O=C(NNc1c(Br)cccc1Br)c1ccc(N2CCOCC2)cc1
(A) 2520

---

Test: Clearance in overnight fasted iv dosed Sprague-Dawley rat measured at 0.083 to 24 hrs post dose by LC-MS/MS method
Format: ADME, organism-based
Details: in vivo, time 0.083-24 hrs
PARAMETER MEASURED: clearance (mL/min/kg)
Respond numerically; units are mL/min/kg and should not be typed.

(Q) Reported clearance, molecule O=C(NNc1c(Br)cccc1Br)c1ccc(N2CCOCC2)cc1 : ____
(A) 33.8

---

Test: Tmax in overnight fasted po dosed Sprague-Dawley rat plasma measured at 0.25 to 24 hrs post dose by LC-MS/MS method
Format: ADME, organism-based
Details: time 0.25-24 hrs
PARAMETER MEASURED: Tmax (min)
A number alone suffices; assume min.

(Q) Could you share which Tmax value was measured for O=C(NNc1c(Br)cccc1Br)c1ccc(N2CCOCC2)cc1 ?
(A) 25.2

---

Test: AUC(0 to infinity) in overnight fasted iv dosed Sprague-Dawley rat measured at 0.083 to 24 hrs post dose by LC-MS/MS method
Format: ADME, organism-based
Design: time 0.083-24 hrs, route iv
Settings: in vivo
PARAMETER MEASURED: AUC(0-inf) (ng·h/mL)
Return type: number; implicit unit ng·h/mL.

(Q) Data request, read-out AUC(0-inf), for O=C(NNc1c(Br)cccc1Br)c1ccc(N2CCOCC2)cc1
(A) 1500

Origin of values: ChEMBL document CHEMBL5154759
